# target: Alpha-1B adrenergic receptor (Rattus norvegicus, UniProt P15823)
# Sequence (P15823 whole entry): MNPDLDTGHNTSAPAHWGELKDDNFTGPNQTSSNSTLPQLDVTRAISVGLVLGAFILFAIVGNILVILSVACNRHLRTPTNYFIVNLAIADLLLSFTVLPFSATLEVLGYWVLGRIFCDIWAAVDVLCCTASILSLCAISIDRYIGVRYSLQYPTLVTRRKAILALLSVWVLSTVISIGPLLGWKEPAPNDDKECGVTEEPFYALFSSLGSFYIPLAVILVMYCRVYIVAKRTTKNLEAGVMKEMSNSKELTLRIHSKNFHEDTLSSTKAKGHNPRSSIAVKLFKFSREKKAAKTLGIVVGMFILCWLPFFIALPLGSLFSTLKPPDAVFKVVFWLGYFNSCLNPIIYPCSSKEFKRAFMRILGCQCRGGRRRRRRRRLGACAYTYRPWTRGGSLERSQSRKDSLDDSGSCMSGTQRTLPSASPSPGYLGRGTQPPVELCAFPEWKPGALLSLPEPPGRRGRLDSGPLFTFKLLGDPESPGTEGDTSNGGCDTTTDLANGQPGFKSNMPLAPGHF
# protocol description: Antagonism of phenylephrine stimulated contraction of the rat isolated spleen.
# Assay type: functional, tissue-based
# condition description: read-out: pA2 (converted)
readout type: log10 of Kb (log10 of the value in nM)
Please interpret these as log10 of Kb where Kb is in nM.

System Alpha-1B adrenergic receptor (Rattus norvegicus, UniProt P15823). Read-out log10 of Kb. Item `COc1cc2nc(N(C)CCCCCCN(C)C(=O)c3ccc(CN4CCSC4)cc3)nc(N)c2cc1OC` . Report value.
0.99

System Alpha-1B adrenergic receptor (Rattus norvegicus, UniProt P15823). Read-out log10 of Kb. Item `COc1cc2nc(N(C)CCCCCCN(C)C(=O)c3ccccc3)nc(N)c2cc1OC` . Report value.
-0.35

System Alpha-1B adrenergic receptor (Rattus norvegicus, UniProt P15823). Read-out log10 of Kb. Item `COc1cc2nc(N(C)CCCCCCN(C)C(=O)c3ccc(CN(C)C)o3)nc(N)c2cc1OC` . Report value.
0.38

System Alpha-1B adrenergic receptor (Rattus norvegicus, UniProt P15823). Read-out log10 of Kb. Item `COc1cc2nc(N(C)CCCCCCN(C)C(=O)c3ccccc3CCl)nc(N)c2cc1OC` . Report value.
0.27

System Alpha-1B adrenergic receptor (Rattus norvegicus, UniProt P15823). Read-out log10 of Kb. Item `COc1cc2nc(N(C)CCCCCCN(C)C(=O)c3cccc(CN)c3)nc(N)c2cc1OC` . Report value.
0.39

System Alpha-1B adrenergic receptor (Rattus norvegicus, UniProt P15823). Read-out log10 of Kb. Item `COc1cc2nc(N(C)CCCCCCN(C)C(=O)c3cccc(CN(C)C)c3)nc(N)c2cc1OC` . Report value.
1.57

System Alpha-1B adrenergic receptor (Rattus norvegicus, UniProt P15823). Read-out log10 of Kb. Item `CNCCCCCCN(C)Cc1ccc(C(=O)N(C)CCCCCCN(C)c2nc(N)c3cc(OC)c(OC)cc3n2)cc1` . Report value.
-0.21

System Alpha-1B adrenergic receptor (Rattus norvegicus, UniProt P15823). Read-out log10 of Kb. Item `COc1cc2nc(N(C)CCCCCCN(C)C(=O)c3cccc(CN4CCSC4)c3)nc(N)c2cc1OC` . Report value.
0.97

====

Assign Kb to each entry below.
# target: Alpha-1D adrenergic receptor (Rattus norvegicus, UniProt P23944)
# Sequence (P23944 whole entry): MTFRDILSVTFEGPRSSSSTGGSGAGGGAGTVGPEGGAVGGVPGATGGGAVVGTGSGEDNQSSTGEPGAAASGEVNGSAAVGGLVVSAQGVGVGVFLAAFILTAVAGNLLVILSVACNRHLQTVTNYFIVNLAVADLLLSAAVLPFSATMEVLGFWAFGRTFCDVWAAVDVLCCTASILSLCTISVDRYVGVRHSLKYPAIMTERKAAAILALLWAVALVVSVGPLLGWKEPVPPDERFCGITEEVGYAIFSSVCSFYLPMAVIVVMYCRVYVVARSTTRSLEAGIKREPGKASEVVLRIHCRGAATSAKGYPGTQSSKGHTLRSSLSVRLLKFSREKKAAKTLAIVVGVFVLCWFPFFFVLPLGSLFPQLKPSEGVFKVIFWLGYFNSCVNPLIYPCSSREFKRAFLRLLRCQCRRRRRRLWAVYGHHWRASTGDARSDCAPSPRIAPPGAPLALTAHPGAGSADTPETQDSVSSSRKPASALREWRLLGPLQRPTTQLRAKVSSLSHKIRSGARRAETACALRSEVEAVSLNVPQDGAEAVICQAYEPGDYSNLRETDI
# protocol description: Antagonism of norepinephrine induced contraction of rat isolated thoracic aorta.
# Type: functional, tissue-based
# condition description: read-out: pA2 (converted)
Number only, in nM; omit the unit.

Supply Kb value. Item: `COc1cc2nc(N(C)CCCCCCN(C)C(=O)c3cccc(CN4CCSC4)c3)nc(N)c2cc1OC`
3.09

Supply Kb value. Item: `COc1cc2nc(N(C)CCCCCCN(C)C(=O)c3cccc(CN)c3)nc(N)c2cc1OC`
2.04

Supply Kb value. Item: `COc1cc2nc(N(C)CCCCCCN(C)C(=O)c3ccc(CN(C)C)cc3)nc(N)c2cc1OC`
13.8

Supply Kb value. Item: `CNCCCCCCN(C)Cc1cccc(C(=O)N(C)CCCCCCN(C)c2nc(N)c3cc(OC)c(OC)cc3n2)c1`
14.5

Supply Kb value. Item: `COc1cc2nc(N(C)CCCCCCN(C)C(=O)c3cccc(CN(C)C)c3)nc(N)c2cc1OC`
5.5

Supply Kb value. Item: `COc1cc2nc(N(C)CCSSCCN(C)C(=O)c3ccc(CCl)o3)nc(N)c2cc1OC`
9.33

Supply Kb value. Item: `COc1cc2nc(N(C)CCCCCCN(C)C(=O)c3cccc(CCl)c3)nc(N)c2cc1OC`
51.3

Supply Kb value. Item: `COc1cc2nc(N(C)CCCCCCN(C)C(=O)c3ccc(CN4CCSC4)cc3)nc(N)c2cc1OC`
6.76
